Task for the reader: assign each of the following molecules its reported TGI.
- Tested on: NCI-H23 lung
- assayProtocol: NCI tumour cell line growth inhibition, 48 h

QUERY: Reported TGI, molecule CC(=O)OC1COC(N2CCc3cc([N+](=O)[O-])ccc32)C(OC(C)=O)C1OC(C)=O (stereo unspecified) : ____
RESULT: > 100 µM

QUERY: And for COc1ccc(CCCCNCc2cccc(CNCCCCc3ccc(OC)cc3)c2)cc1 ?
RESULT: 3.37 µM

QUERY: And for CC1NOC(=O)C1N=Nc1ccc(Cl)cc1Cl (stereo unspecified) ?
RESULT: 64.2 µM

QUERY: And for ClCCOCCn1cnc2c(Cl)nc(Cl)nc21 ?
RESULT: 29.1 µM

QUERY: And for Cc1cc(Br)c(NC(=O)c2c(-c3c(Cl)cccc3Cl)noc2C)c(Br)c1 ?
RESULT: > 100 µM

QUERY: And for COc1ccc(C(O)c2cc3c(N)c(C(=O)Nc4cccc5ccccc45)sc3nc2C)cc1 (stereo unspecified) ?
RESULT: > 100 µM

QUERY: And for COC(=O)[C@@H]1CO[C@H](C(C)(C)C)N1C(=O)N1C=CC(=O)C[C@H]1C ?
RESULT: > 100 µM

QUERY: And for O=C(O)CN(CCN(CC(=O)O)CC(=O)O)CC(=O)O.[Mn+2] ?
RESULT: > 100 µM

QUERY: And for COc1cc2nc(Cl)nc(NS(=O)(=O)c3cc4ccccc4s3)c2cc1OC ?
RESULT: 62.5 µM

QUERY: And for CCCCCCCCCCCCCCCCCCNc1ccn(C2OC(COP(=O)(O)OCC3OC(n4ccc(N)nc4=O)C(O)C3O)C(O)C2O)c(=O)n1 (stereo unspecified) ?
RESULT: > 100 µM

QUERY: And for NCCOc1cccc(C2(N3CCCCC3)CCCCC2)c1 ?
RESULT: > 100 µM

QUERY: And for CC(=O)Nc1ccc(C2CC(c3ccc([N+](=O)[O-])cc3)=Nc3ccccc3S2=O)cc1 (stereo unspecified) ?
RESULT: 53.9 µM

QUERY: And for CN(NC1=NCCO1)c1ccc2ccccc2c1 ?
RESULT: > 100 µM

QUERY: And for Cc1ccc(S(=O)(=O)NCCCCC(N)C(=O)O)cc1 (stereo unspecified) ?
RESULT: > 100 µM

QUERY: And for Cc1noc(NC(=O)Nc2ccccc2F)c1C#N ?
RESULT: > 100 µM

QUERY: And for O=C1c2ccccc2C(=O)c2[nH]cnc21 ?
RESULT: > 100 µM

QUERY: And for COC(=O)[C@@]12OC[C@]34C([C@@H](O)C1O)[C@@]1(C)CC(=O)C(OC(=O)CC(C)C(F)(F)F)=C(C)C1C[C@H]3OC(=O)[C@H](O)[C@H]42 (stereo partly specified) ?
RESULT: 8.69 µM

QUERY: And for CCCCCC/C=C\CCCCCCCCC(=O)c1cccc(OC)c1OC ?
RESULT: > 100 µM

QUERY: And for COc1ccc(/C(Nc2ccccc2)=C(\CCl)c2ccccc2)cc1OC ?
RESULT: > 100 µM

QUERY: And for CCSCC1CC(O)(c2ccccc2)C(c2ccccc2)C(c2ccc(F)cc2)O1 (stereo unspecified) ?
RESULT: 4.87 µM

QUERY: And for C(=Nc1nc(SCc2ccccc2)nc2[nH]ncc12)c1cccs1 ?
RESULT: > 100 µM
